kon overview
# assayed.system: T1, recombinant human CD39 (in-house product, 38 to 478 aa of Accession No. NM_001776.6) (human, UniProt P49961 38-478)
# T1 construct: also called rhCD39; human CD39-ECD; not shown: Myc and His tags at the C-terminus are named only for the PE-lab
# T1 sequence (looked up): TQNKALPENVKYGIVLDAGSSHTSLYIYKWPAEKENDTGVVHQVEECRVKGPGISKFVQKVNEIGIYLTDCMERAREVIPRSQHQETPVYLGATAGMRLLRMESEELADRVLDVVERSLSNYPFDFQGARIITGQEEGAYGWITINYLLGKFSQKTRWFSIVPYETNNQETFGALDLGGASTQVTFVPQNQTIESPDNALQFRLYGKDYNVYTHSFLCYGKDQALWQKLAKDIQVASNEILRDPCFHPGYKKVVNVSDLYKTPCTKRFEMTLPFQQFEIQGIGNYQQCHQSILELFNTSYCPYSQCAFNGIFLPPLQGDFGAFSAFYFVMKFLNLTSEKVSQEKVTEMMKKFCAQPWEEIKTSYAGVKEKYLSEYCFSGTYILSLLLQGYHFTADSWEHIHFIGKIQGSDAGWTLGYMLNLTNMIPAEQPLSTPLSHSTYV
# experimental.protocol: SPR Biacore8K, antibody captured on anti-human IgG, antigen as analyte
Please state the figure in M⁻¹ s⁻¹; there is no need to write the unit.

Tre_291_sc (antibody, scFv-Fc homodimer, anti-CD39 (mouse variable regions); not shown: linker and Fc-LALA (human IgG1 Fc with L234A and L235A)) scFv: QVQLKQSGPGLVQPSQSLSITCTVSGFSLTSYGVHWVRQSPGKGLEWLGVIWRRGSTDYNAAFMSRLSITKDTSKSQVFFKMNSLQTDDTAIYYCAGVRGDAMDYWGQGTSVTVSSGGGGSGGGGSGGGGSGGGGSDIVMTQSHKSMSTSVGDRVSVTCKASQNVGTNVAWYQQKPGQSPKALIYSASYRYSGVPDRFTGSGSGTDFTLTISNVQSEDLAEYFCQQYNSYPLTFGGGTKLEIK    1.4e+06
mAnE67_sc (antibody, scFv-Fc homodimer, anti-CD39 (mouse variable regions); also called scFv-Fc homodimeric antibody of anti-CD39_scFv antibody mAnE67; not shown: linker and Fc-LALA (human IgG1 Fc with L234A and L235A)) scFv: EVQLVESGGGLVKPGGSRKLSCAASGFTFSDYGMHWVRQAPEKGLEWVAYISSGSSIIYYADTVKGRFTISRDNAKNTLFLQMTGLRSEDTAMYYCARKDYPYAMDYWGQGTSLAVSSGGGGSGGGGSGGGGSGGGGSSIVMTQTPKFMSTSVGDRVSVTCKASQNVGTNVAWYQQKPGQSPKALIYWASNRFTGVPDRFTGSGSGTDFTLTISNVQSEDLADYFCQQYSSSPYTFGSGTKLEIK    393000

Turning now to a further binder:
Note to self: kon recorded for T86_sc (antibody, scFv-Fc homodimer, anti-CD39 (mouse variable regions); also called scFv-Fc homodimeric antibody of anti-CD39_scFv antibody T86; not shown: linker and Fc-LALA (human IgG1 Fc with L234A and L235A)) scFv: QIQLVQSGPELKKPGETVKISCEASGYTFINYGMNWVKQAPGKGLKWMGWINTYTGEPTYADDFKGRFAFSLETSANTAYLQINNLKNEDTATYFCARKGYYGYPNYYAMDYWGQGTSVTVSSGGGGSGGGGSGGGGSGGGGSDIVMTQSQKFMSTSVGDRVSITCKASQNVGTAVAWYQQKPGQSPKLLIYSASNRYTGVPDRFTGSGSGTDFTLTISNMQSEDLADYFCQQYSSYPITFGTGTKLEIK was 192000
